Test Description: drug combination growth inhibition, ovarian cancer – cell-based, oncology-focused library, rucaparib conditional, profiling panel (AID 1508598)
Protocol Conditions: patient-derived ovarian cancer cells, CellTiter-Glo viability, 144 h; at 5 µM; OCI-P5x cells; without rucaparib; stronger effect = lower value
Where a SMILES comes first, the peptide text is derived from it. The star is where a group is joined. Cbz = O=C(OCc1ccccc1)*; CH2F = FC*
Property Name: viability (%)
Respond numerically; units are % and should not be typed.

Reported viability ( COC(=O)C[C@H](NC(=O)[C@H](C)NC(=O)[C@@H](NC(=O)OCc1ccccc1)C(C)C)C(=O)CF (Cbz-Val-Ala-Asp(OMe)-CH2F) ) = 108

Reported viability ( CC(C)C[C@H](NP(=O)(O)O[C@@H]1O[C@@H](C)[C@H](O)[C@@H](O)[C@H]1O)C(=O)N[C@@H](Cc1c[nH]c2ccccc12)C(=O)O ) = 92

Reported viability ( CCc1c2c(nc3ccc(OC(=O)N4CCC(N5CCCCC5)CC4)cc13)-c1cc3c(c(=O)n1C2)COC(=O)[C@@]3(O)CC ) = 13.4

Reported viability ( CC(=O)[C@]1(O)Cc2c(O)c3c(c(O)c2[C@H](O[C@H]2C[C@H](N)[C@H](O)[C@H](C)O2)C1)C(=O)c1ccccc1C3=O ) = 3.64

Reported viability ( O=C(/C=C/c1ccc2ccccc2n1)c1ccncc1 ) = 109

Reported viability ( CCC(C)(C)C(=O)O[C@@H]1C[C@@H](C)C=C2C=C[C@H](C)[C@@H](CC[C@@H]3C[C@@H](O)CC(=O)O3)[C@H]21 ) = 3.59

Reported viability ( Nc1ncn([C@@H]2O[C@H](CO)[C@@H](O)[C@@H]2O)c(=O)n1 ) = 99.1

---

Test Description: growth inhibition, single agent and combos, cell-based, chromothripsis tumors, cisplatin or BGB combos (AID 1671450);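 note: cells exposed to compound for four days; 0% = vehicle DMSO and 100% = cell killing by high DMSO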
Protocol Conditions: HDN33 neuroblastoma cells, single agent, at 5 µM, stronger effect = higher value
Record form. Attribute: inhibition. Fill in for each entry.
Respond numerically; units are % and should not be typed.

Reported inhibition ( C=C(C)C1CCC2(C(=O)O)CCC3(C)C(CCC4C5(C)CCC(O)C(C)(C)C5CCC43C)C12 (centres undefined) ) = -1.41

Reported inhibition ( C[C@@H]1O[C@@H](O[C@@H]2[C@@H](O)[C@H](OCCc3ccc(O)c(O)c3)O[C@H](CO)[C@H]2OC(=O)C=Cc2ccc(O)c(O)c2)[C@H](O)[C@H](O)[C@H]1O ) = 21.8

Reported inhibition ( Cc1cc(C#N)cc(C)c1Oc1nc(Nc2ccc(C#N)cc2)nc(N)c1Br ) = -3.14

Reported inhibition ( Nc1nc(NC2CC2)cc(-c2cccc(Cl)c2Cl)n1 ) = 1.5

Reported inhibition ( C[C@H](NC(=O)c1ccccc1N=Cc1c(O)ccc2ccccc12)c1ccccc1 ) = 7.54

Reported inhibition ( NC(=O)c1cccc2cn(-c3ccc(C4CCCNC4)cc3)nc12 (centres undefined) ) = 44.3

Reported inhibition ( NC(=O)c1cccc2[nH]c(-c3ccc(C4CCCN4)cc3F)nc12 (centres undefined) ) = 54.9

Reported inhibition ( CC(C)OC(=O)[C@H](C)NP(=O)(OC[C@H]1O[C@@H](n2ccc(=O)[nH]c2=O)C(C)(F)[C@@H]1O)Oc1ccccc1 (some centres undefined) ) = -29.9

Reported inhibition ( CC(Oc1cc(-c2cnn(C3CCNCC3)c2)cnc1N)c1c(Cl)ccc(F)c1Cl (centres undefined) ) = 74.1

---

Test Description: CRL1545 cell growth, single agent and combined, cisplatin and BGB IC20 combos (AID 1671464);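 note: cells exposed to compound for 96 hours before readout; 0% = vehicle DMSO and 100% = high DMSO killing control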
Protocol Conditions: CRL1545 osteosarcoma cells, single agent, at 0.05 µM, stronger effect = higher value
Label rule, in plain words: inhibition of 10% and up is Yes, under 10% is No.

Query string: Is inhibition at least 10%? Consider COc1cccc2c1C(=O)c1c(O)c3c(c(O)c1C2=O)CC(O)(C(C)=O)CC3OC1CC(N)C(O)C(C)O1 (stereo unspecified)
Result string: Yes

Query string: Is inhibition at least 10%? Consider C[C@@H]1COCCN1c1cc(C2(S(C)(=O)=O)CC2)nc(-c2cccc3[nH]ccc23)n1
Result string: Yes

Query string: Is inhibition at least 10%? Consider O=c1cc(-c2ccc(O)cc2)[nH]c(=S)[nH]1
Result string: No

Query string: Is inhibition at least 10%? Consider CC(C)C(=O)SCCCCCCC(=O)Nc1nc(-c2ccccc2)cs1
Result string: No

Query string: Is inhibition at least 10%? Consider COc1ccc(-c2nc(-c3cc(C(F)(F)F)cc(C(F)(F)F)c3)n(Cc3ccc(C(N)=O)cc3)c2-c2ccc(OC)cc2)cc1
Result string: No

Query string: Is inhibition at least 10%? Consider CON=C1CN(c2nc3c(cc2F)c(=O)c(C(=O)O)cn3C2CC2)CC1CN (stereo unspecified)
Result string: No

Query string: Is inhibition at least 10%? Consider CC1OC(CC(=O)O)CC2=C1C(=O)c1c(O)cccc1C2=O (stereo unspecified)
Result string: Yes

Query string: Is inhibition at least 10%? Consider O=c1[nH]cnc2c1ncn2C1CCC(CO)O1 (stereo unspecified)
Result string: No

Query string: Is inhibition at least 10%? Consider C=C1C(=O)O[C@@H]2C=C(C)CCC=C(C)CC[C@@H]12
Result string: Yes

Query string: Is inhibition at least 10%? Consider NC(=O)c1ncn(C2OC(CO)C(O)C2O)c1O (stereo unspecified)
Result string: Yes

Query string: Is inhibition at least 10%? Consider CC(C)c1ccc(-c2cc(=O)c3ccccc3o2)cc1
Result string: No

---

Test system: Hepatitis C virus NS3 helicase
Test Description: blockers of NS3h binding to ssDNA – biochemical, fluorescence polarization, LOPAC1280 library, primary screen (AID 687035)
Protocol Conditions: Purified HCV NS3 helicase, Cy5-dT15 ssDNA binding fluorescence polarization; concentration not given here
Active and inactive are the calls of the source. Cut-off read from the data, not from the text of the source: active = inhibition above about 37%; inactive = the rest.
Your reply should match one of these outcome classes. T = active, F = inactive

Query string: What classification did C=C1C[C@@]23CC[C@H]4[C@@](C)(CCC[C@@]4(C)C(=O)O)[C@@H]2CC[C@]1(O)C3 end up with in this test?
Result string: F

Query string: What classification did CCCn1c(=O)c2c(ncn2C)n(CCC)c1=O end up with in this test?
Result string: F

Query string: What classification did CCOC(=O)[C@H](CCc1ccccc1)N[C@@H](C)C(=O)N1[C@H](C(=O)O)C[C@H]2CCCC[C@@H]21 end up with in this test?
Result string: F

Query string: What classification did COC1=C(OC)C(=O)c2ccccc2C1=O end up with in this test?
Result string: F

Query string: What classification did Cc1nc(N=Nc2cc(S(=O)(=O)O)c3cc([N+](=O)[O-])cc(S(=O)(=O)O)c3c2)c(COP(=O)(O)O)c(C=O)c1O end up with in this test?
Result string: T

---

Record form. Attribute: inhibition. Fill in for each entry.
Test Description: growth inhibition, single agents and combos, ICB984, cell-based, cisplatin or BGB combos, synergistic combos for chromothripsis tumors (AID 1671451);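 note: cells exposed for 96 hours before readout; 0% = vehicle DMSO and 100% = killing by high DMSO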
Protocol Conditions: ICB984 medulloblastoma cells, drug combinations, cisplatin combo, at 0.05 µM, stronger effect = higher value
Respond numerically; units are % and should not be typed.

Reported inhibition ( NC(=O)c1cccc2cn(-c3ccc(C4CCCNC4)cc3)nc12 (stereo unspecified) ) = -48.9

Reported inhibition ( O=C1C(=Cc2cccnc2)C(=O)c2ccccc21 ) = -10.2

Reported inhibition ( Cc1ccc([N+](=O)[O-])cc1S(=O)(=O)N(C)/N=C\c1cnc2ccc(Br)cn12 ) = 97

Reported inhibition ( O=c1ccn(C2CC(O)C(CO)O2)c(=O)[nH]1 (stereo unspecified) ) = -25.4

Reported inhibition ( C=C1C(=O)O[C@@H]2C=C(C)CCC=C(C)CC[C@@H]12 ) = 51.9

Reported inhibition ( Cn1cc(-c2cnn3c(N)c(Br)c([C@H]4CCCNC4)nc23)cn1 ) = -20.5

---

Test Description: MELAS cybrid and Rieske KO viability enhancers – cell-based, MELAS cybrids, Rieske KO mouse fibroblasts, CellTiter-Glo, primary screen (AID 1508586);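 note: z relative to plate mean and SD of compound and empty wells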
Protocol Conditions: MELAS cybrid survival, low glucose, CellTiter-Glo 48 h; stronger effect = higher value
Record form. Attribute: z-score. Fill in for each entry.
Provide a numeric answer; units are not to be included.

Reported z-score ( O=C(O)C=Cc1ccccc1O ) = 0.0698

Reported z-score ( FC(F)Oc1ccc(-c2nc3c(cnn3Cc3cccs3)[nH]2)cc1 ) = -0.426

Reported z-score ( O=C(Nc1ccc(Oc2ccc3nc(NC(=O)c4ccco4)[nH]c3c2)cc1)Nc1cc(C(F)(F)F)ccc1F ) = -1.24

Reported z-score ( CC(C)OC(=O)OCOP(=O)(COC(C)Cn1cnc2c(N)ncnc21)OCOC(=O)OC(C)C (centres undefined) ) = -0.399

Reported z-score ( NCCC(O)C(=O)NC1CC(N)C(OC2OC(CN)C(O)C(O)C2O)C(O)C1OC1OC(CO)C(O)C(N)C1O (centres undefined) ) = -1.15

Reported z-score ( CCc1nc(CNc2cc(C(=O)NCc3ccccn3)cc(S(=O)(=O)N3CCCC3)c2)c(C)[nH]1 ) = -0.302

Reported z-score ( CC(C)[N+]1(C)[C@@H]2CC[C@H]1CC(OC(=O)C(CO)c1ccccc1)C2 (some centres undefined) ) = -0.791

Reported z-score ( Cc1cn(C2CC(O)C(CO)O2)c(=O)[nH]c1=O (centres undefined) ) = -0.34

Reported z-score ( CO/N=C(\C(=O)N[C@@H]1C(=O)N2C(C(=O)[O-])=C(C[N+]3(C)CCCC3)CS[C@H]12)c1csc(N)n1 ) = -0.344

meta.source: PubChem BioAssay
